Documented kon across a set of binders
# System tested: T1, recombinant human PD-1-his (Sino biological, #10377-H08H) (human, UniProt Q15116 25-167)
# T1 construct: Bought protein; also called Human PD-1-his protein; not shown: his tag
# T1 sequence (Q15116 25-167 limits assumed): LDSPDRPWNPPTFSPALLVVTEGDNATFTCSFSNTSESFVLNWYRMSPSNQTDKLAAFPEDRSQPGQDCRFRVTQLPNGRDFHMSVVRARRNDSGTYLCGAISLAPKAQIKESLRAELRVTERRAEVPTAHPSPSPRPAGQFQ
# Assay explanation: SPR (Biacore T200), antibody captured, antigen flowed
Numeric answer only, unit M⁻¹ s⁻¹ assumed.

Below are worked cases with known answers.
mouse anti-PD-1 monoclonal antibody D1F2 (antibody, mouse IgG1, kappa, V domains shown, Purified from hybridoma; Constant regions tied only generically to 'mouse antibodies') VH: EVMLVESGGGLVKPGGSLKLSCAASGFTFSSYTMSWVRQTPEKRLEWVATISGGGSNIYYPDSVEGRFTVSRDNARNTLYLHMSSLRSEDTALYYCVLNYAYAMDYWGQGTSVTVSS VL: DIQMTQTTSSLSASLGDRVTISCRASQDISNFLNWYQQKPDGTVKLLIYYTSRLQSGVPSRFSGTGSGTDYSLTISNLEQEDLATYFCQQGSSLPWTFGGGTKLEIKR : 194000
mouse anti-PD-1 monoclonal antibody C1C5 (antibody, mouse IgG1, kappa, V domains shown, Purified from hybridoma; Constant regions tied only generically to 'mouse antibodies') VH: QIQLVQSGPELKKPGETVKISCKASGYTFTNYGINWVKQAPGKGLKWMGWINTYSGEPTYSDDFKGRFAFSLETSASTAYLQINNLKNEDTSTYFCVRQGDFDYEDAMDYWGQGTSVTVSS VL: DVLMTQSPLSLPVSLGDQASISCRSSQSIVHSNGHIYLEWYLQKPGQSPKLLIYKVSKRFSGVPDRFSGSGSGTDFTLKISRVEAEDLGVYYCFQGSHGTFGGGTKLEIKR : 231000

// moving on: another record for kon
kon measured on mouse anti-PD-1 monoclonal antibody C1F4 (antibody, mouse IgG1, kappa, V domains shown, Purified from hybridoma; Constant regions tied only generically to 'mouse antibodies') VH: QVQLQQSGAELVRPGVSVKISCKGSGYKFTDYAMHWVRQSHAKSLEWIGIISTYSGDVSFNQNFKGKATMTVDKSSSTAYMELARLTSEDSAIYYCSRLGITAGFAYWGQGTLVTVSA VL: DIVMTQSQKFMSTSVGDRVTITCKASQNVRTAVAWYQQKPGQSPKALIYLASNRHTGVPDRFTGSGSGTDFTLTISNVQSKDLADYFCLQHWNYPYTFGGGTKLEIKR = 156000
